Target: human TLR7 (Homo sapiens (Human), UniProt Q9NYK1)
Sequence (Q9NYK1 27-1049): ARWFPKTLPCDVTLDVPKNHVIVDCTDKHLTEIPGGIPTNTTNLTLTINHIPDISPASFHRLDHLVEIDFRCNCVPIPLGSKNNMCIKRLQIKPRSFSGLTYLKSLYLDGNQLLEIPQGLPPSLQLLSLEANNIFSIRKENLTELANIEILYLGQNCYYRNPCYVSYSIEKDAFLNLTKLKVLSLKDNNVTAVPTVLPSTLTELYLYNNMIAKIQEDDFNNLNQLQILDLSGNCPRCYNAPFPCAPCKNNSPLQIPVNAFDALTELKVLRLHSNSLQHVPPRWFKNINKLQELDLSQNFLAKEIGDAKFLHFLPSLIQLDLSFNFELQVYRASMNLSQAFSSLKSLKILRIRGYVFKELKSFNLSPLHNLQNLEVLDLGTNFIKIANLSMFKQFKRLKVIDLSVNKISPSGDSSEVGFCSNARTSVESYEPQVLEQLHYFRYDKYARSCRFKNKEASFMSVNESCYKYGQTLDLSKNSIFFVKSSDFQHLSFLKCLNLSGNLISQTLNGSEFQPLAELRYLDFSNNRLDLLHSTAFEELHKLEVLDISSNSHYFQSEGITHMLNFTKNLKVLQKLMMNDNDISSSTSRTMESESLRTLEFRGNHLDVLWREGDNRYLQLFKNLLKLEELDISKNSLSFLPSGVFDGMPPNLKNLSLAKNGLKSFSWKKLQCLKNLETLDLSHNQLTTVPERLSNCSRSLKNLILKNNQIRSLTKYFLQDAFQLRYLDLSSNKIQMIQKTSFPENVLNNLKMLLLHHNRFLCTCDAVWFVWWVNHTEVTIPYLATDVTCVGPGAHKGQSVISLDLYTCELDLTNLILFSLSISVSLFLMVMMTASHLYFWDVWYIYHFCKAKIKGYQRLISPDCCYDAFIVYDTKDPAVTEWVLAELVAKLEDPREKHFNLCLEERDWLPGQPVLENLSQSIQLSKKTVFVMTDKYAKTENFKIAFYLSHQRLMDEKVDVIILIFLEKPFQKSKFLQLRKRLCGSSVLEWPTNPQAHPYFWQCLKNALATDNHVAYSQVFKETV
Assay: TLR7 inhibition reporter assay (HEK-Blue SEAP)
Details: HEK-Blue cells overexpressing human TLR7, gardiquimod 7.5 μM stimulation
pIC50: −log10 of the molar value.
experimental readout: pIC50

> print(dat)
                                    compound                              study.target  observed.value
 1  Cc1c(-c2[nH]c3cnc(C4CCC(NC(C)C)CC4)c(C)c3c2C(C)C)cn2ncnc2c1C (stereo not drawn) [Example 277]  human TLR7 (Homo sapiens (Human), UniProt Q9NYK1)            8.26
 2  COc1cc(-c2[nH]c3cnc(C4CCN(C(C)C)CC4)c(C)c3c2C(C)C)cn2ncnc12  human TLR7 (Homo sapiens (Human), UniProt Q9NYK1)            8.85
 3  COc1cc(-c2[nH]c3cnc(C4CCC(NCC(C)(C)C)CC4)cc3c2C(C)C)cn2ncnc12 (stereo not drawn) [Example 310]  human TLR7 (Homo sapiens (Human), UniProt Q9NYK1)            7.89
 4  Cc1c(N2CCC(N(C)CCC#N)CC2)ncc2[nH]c(-c3cc(C)c4ncnn4c3)c(C(C)C)c12  human TLR7 (Homo sapiens (Human), UniProt Q9NYK1)            8.89
 5  Cc1c(-c2[nH]c3cnc(N4CCN(CC(F)(F)F)C[C@H]4C)c(F)c3c2C(C)C)cn2ncnc2c1C  human TLR7 (Homo sapiens (Human), UniProt Q9NYK1)            7.37
 6  COc1cc(-c2[nH]c3cnc(C4CCN(CC(N)=O)CC4)c(C)c3c2C(C)C)cn2ncnc12  human TLR7 (Homo sapiens (Human), UniProt Q9NYK1)            8.80
 7  COCCN1CCN(c2ncc3[nH]c(-c4cn5ncnc5c(C)c4C)c(C(C)C)c3c2F)CC1  human TLR7 (Homo sapiens (Human), UniProt Q9NYK1)            8.20
 8  COc1cc(-c2[nH]c3cnc(N4CC5(CN(CC(C)C)C5)C4)c(F)c3c2C(C)C)cn2ncnc12  human TLR7 (Homo sapiens (Human), UniProt Q9NYK1)            8.10
 9  Cc1c(N2CCC(NC3COC3)CC2)ncc2[nH]c(-c3cc(C)c4ncnn4c3)c(C(C)C)c12  human TLR7 (Homo sapiens (Human), UniProt Q9NYK1)            9.28
10  COc1cc(-c2[nH]c3cnc(C4CCN(CC5(C)COC5)CC4)c(F)c3c2C(C)C)cn2ncnc12  human TLR7 (Homo sapiens (Human), UniProt Q9NYK1)            8.89
11  Cc1c(-c2[nH]c3cnc(C4CCC(N5CCC5)CC4)cc3c2C(C)C)cn2ncnc2c1C (stereo not drawn)  human TLR7 (Homo sapiens (Human), UniProt Q9NYK1)            8.37
12  COc1cc(-c2[nH]c3cnc(N4CCC(NCC(N)=O)CC4)cc3c2C(C)C)cn2ncnc12  human TLR7 (Homo sapiens (Human), UniProt Q9NYK1)            7.96
13  COc1cc(-c2[nH]c3cnc(N4CC5(CN(CC6CCC6)C5)C4)c(F)c3c2C(C)C)cn2ncnc12  human TLR7 (Homo sapiens (Human), UniProt Q9NYK1)            7.77
14  COCCN1CCC(c2ncc3[nH]c(-c4cc(OC)c5ncnn5c4)c(C(C)C)c3c2F)CC1  human TLR7 (Homo sapiens (Human), UniProt Q9NYK1)            8.70
15  Cc1c(N2CCC(N3CCNC(=O)C3)CC2)ncc2[nH]c(-c3cc(C)c4ncnn4c3)c(C(C)C)c12  human TLR7 (Homo sapiens (Human), UniProt Q9NYK1)            8.08
